Reference for the values: paper PMC6335422

Reported stoichiometry N values are given for each entry in this list.
Target: T1, Erh1 (residues 1-104), wild type (S. pombe, UniProt G2TRN4 1-104)
T1 construct: Erh1, S. pombe, residues 1-104, amplified from the S. pombe genome, in a modified pET28a vector without thrombin site (p28a); also called Erh1wt; Enhancer of rudimentary homolog 1; source: E. coli BL21 (Gold), purified (Ni-chelating resin, size-exclusion chromatography)
T1 sequence (looked up): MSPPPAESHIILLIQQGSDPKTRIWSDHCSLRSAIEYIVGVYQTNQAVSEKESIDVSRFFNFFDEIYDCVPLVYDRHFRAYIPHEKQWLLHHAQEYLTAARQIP
Test: ITC; SUMO-tagged Mmi1 peptides titrated into Erh1 in the sample cell; MicroCal iTC200, 293 K; 20 mM Tris-HCl pH 7.5, 150 mM NaCl; single-site binding model
Details: both partners purified
// print number alone

Reference set (8 entries):
| binder | stoichiometry N |
| --- | --- |
| GKYDFSRHCTDYGHSYEWPYARSLRRES (domain or fragment, S. pombe, UniProt O74958 95-122, looked up, also called Mmi1 F115A; source: E. coli BL21 (Gold), purified (Ni-chelating resin, size-exclusion chromatography); not shown: SUMO, N-terminal, kept) [SUMO-tagged Mmi1 95-122 F115A] | 0.9 |
| GKYDFSRHCTDYGHSYEWPAFRSLRRES (domain or fragment, S. pombe, UniProt O74958 95-122, looked up, also called Mmi1 Y114A; source: E. coli BL21 (Gold), purified (Ni-chelating resin, size-exclusion chromatography); not shown: SUMO, N-terminal, kept) [SUMO-tagged Mmi1 95-122 Y114A] | 0.97 |
| GKADFSRHCTDYGHSYEWPYFRSLRRES (domain or fragment, S. pombe, UniProt O74958 95-122, looked up, also called Mmi1 Y97A; source: E. coli BL21 (Gold), purified (Ni-chelating resin, size-exclusion chromatography); not shown: SUMO, N-terminal, kept) [SUMO-tagged Mmi1 95-122 Y97A] | 1.27 |
| YGHSYEWPYFRSLRRES (domain or fragment, S. pombe, UniProt O74958 106-122, looked up, source: E. coli BL21 (Gold), purified (Ni-chelating resin, size-exclusion chromatography); not shown: SUMO, N-terminal, kept) [SUMO-tagged Mmi1 106-122] | 0.89 |
| GKYDFSRHCTDAGHSYEWPYFRSLRRES (domain or fragment, S. pombe, UniProt O74958 95-122, looked up, also called Mmi1 Y106A; source: E. coli BL21 (Gold), purified (Ni-chelating resin, size-exclusion chromatography); not shown: SUMO, N-terminal, kept) [SUMO-tagged Mmi1 95-122 Y106A] | 1.36 |
| GKYDFSRHCTDYGHSYEWPYFRSLARES (domain or fragment, S. pombe, UniProt O74958 95-122, looked up, also called Mmi1 R119A; source: E. coli BL21 (Gold), purified (Ni-chelating resin, size-exclusion chromatography); not shown: SUMO, N-terminal, kept) [SUMO-tagged Mmi1 95-122 R119A] | 1.12 |
| GKYDFSRHCTDYGASYEWPYFRSLRRES (domain or fragment, S. pombe, UniProt O74958 95-122, looked up, also called Mmi1 H108A; source: E. coli BL21 (Gold), purified (Ni-chelating resin, size-exclusion chromatography); not shown: SUMO, N-terminal, kept) [SUMO-tagged Mmi1 95-122 H108A] | 1.36 |
| GKYDFSRHCTDYGHSAEWPYFRSLRRES (domain or fragment, S. pombe, UniProt O74958 95-122, looked up, also called Mmi1 Y110A; source: E. coli BL21 (Gold), purified (Ni-chelating resin, size-exclusion chromatography); not shown: SUMO, N-terminal, kept) [SUMO-tagged Mmi1 95-122 Y110A] | 1 |

[Q] Hello, please tell me recorded stoichiometry N for this one: GKYDFSRHCADYGHSYEWPYFRSLRRES (domain or fragment, S. pombe, UniProt O74958 95-122, looked up, also called Mmi1 T104A; source: E. coli BL21 (Gold), purified (Ni-chelating resin, size-exclusion chromatography); not shown: SUMO, N-terminal, kept) [SUMO-tagged Mmi1 95-122 T104A]
[A] 1.45

[Q] Using the record for GKYDASRHCTDYGHSYEWPYFRSLRRES (domain or fragment, S. pombe, UniProt O74958 95-122, looked up, also called Mmi1 F99A; source: E. coli BL21 (Gold), purified (Ni-chelating resin, size-exclusion chromatography); not shown: SUMO, N-terminal, kept) [SUMO-tagged Mmi1 95-122 F99A] , state its measured stoichiometry N.
[A] 1.38

[Q] Assign stoichiometry N to the following record: GKYDFARHCTDYGHSYEWPYFRSLRRES (domain or fragment, S. pombe, UniProt O74958 95-122, looked up, also called Mmi1 S100A; source: E. coli BL21 (Gold), purified (Ni-chelating resin, size-exclusion chromatography); not shown: SUMO, N-terminal, kept) [SUMO-tagged Mmi1 95-122 S100A]
[A] 1.36
